Field: viability, T/C. Provide a value for each of the molecules that follow.
Test system: 885724-159-R-J1-PDC KRAS PDC multicell spheroid viability;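 note: spheroids exposed to agents for 7 days before readout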
Test: Anticancer human tumor 885724-159-R-J1-PDC patient-derived pancreatic adenocarcinoma cell line growth inhibition [KRAS2]
Conditions: second compound 10 µM; first compound 0.1 µM; hits give low values
All answers are understood in %, so give the number only.

Recorded viability, T/C of CCNC(=O)CC1N=C(c2ccc(Cl)cc2)c2cc(OC)ccc2-n2c(C)nnc21 (stereo not given) + C=CC(=O)N1CCN(c2nc(=O)n(-c3c(C)ccnc3C(C)C)c3nc(-c4c(O)cccc4F)c(F)cc23)C(C)C1 , please.
66

// same read-out, input: CC(C)n1nc(-c2ccc3oc(N)nc3c2)c2c(N)ncnc21 + CC1OCC2(CCN(c3cnc(Sc4ccnc(N)c4Cl)c(N)n3)CC2)C1N
39.6

// same read-out, input: CC(=O)OC12COC1CC(O)C1(C)C(=O)C(O)C3=C(C)C(OC(=O)C(O)C(NC(=O)OC(C)(C)C)c4ccccc4)CC(O)(C(OC(=O)c4ccccc4)C21)C3(C)C (stereo not given) + CC1OCC2(CCN(c3cnc(Sc4ccnc(N)c4Cl)c(N)n3)CC2)C1N
87.4

// same read-out, input: CC1COCCN1c1cc(-c2ccnn2C)c2ccnc(-c3ccn[nH]3)c2n1 (stereo not given) + CNCc1ccccc1-c1csc(C(C)Nc2nc(C)nc3cc(OC)c(OC)cc23)c1
0.26

// same read-out, input: CCN1CCN(Cc2ccc(Nc3ncc(F)c(-c4cc(F)c5nc(C)n(C(C)C)c5c4)n3)nc2)CC1 + CNCc1ccccc1-c1csc(C(C)Nc2nc(C)nc3cc(OC)c(OC)cc23)c1
0.19
